# Test system: MRSA 97-115
# assay: Antibacterial activity test (MIC)
# Format: cell-based, methicillin-resistant Staphylococcus aureus
# stated conditions: Mueller-Hinton Broth, 37° C., 20 to 24 hours
observation type: minimal inhibitory concentration (MIC) (mg/L)

CC(=O)O.CCCCCCCCNC1=NC(C)(C)N=C(NCC2CCCCC2)N1 [compound 65]
0.8
CC(=O)O.CCCCCCCCNC1=NC(C)(C)N=C(NCCCCCC)N1 [compound 68]
0.8
CCCCCCCCCCCNC1=NC(C)(C)N=C(NCCc2ccc(OC)cc2)N1.Cl [compound 6]
1.8
CCCCCCCCCCC1N=C(N)N=C(N)N1c1ccc(F)c(F)c1F.Cl (centres unmarked) [compound 31]
3.1
CCCCCCCCCCC1N=C(N)NC(Nc2ccc(F)cc2F)=N1 (centres unmarked) [compound 34]
1.6
CCCCCCCCCCNC1=NC(C)(C)N=C(NCc2ccc(C(=O)O)cc2)N1.Cl [compound 60]
6.3
Br.CCCCCCCCCNC1=NC(C)(C)N=C(NCc2ccccc2)N1 [compound 49]
0.8
CC(=O)O.CCCCCCCCNC1=NC(C)(C)N=C(NCCc2ccccc2)N1 [compound 57]
1.6

a: CCCCCCCCCC1N=C(N)N=C(N)N1c1ccc(OC(F)(F)F)cc1.Cl (centres unmarked) [compound 28]
b: CCCCCCCCCCCC1(C)N=C(N)N=C(N)N1c1ccc(Cl)cc1.Cl (racemic) [compound 45]
Identify the entry with the larger minimal inhibitory concentration (MIC). Options: a and b Could you answer with the label of the item you picked?
a

A: CC(=O)O.CCCCCCCNC1=NC(C)(C)N=C(NCc2ccc(C)cc2)N1 [compound 59]
B: CCCCCCCCCCNC1=NC(C)(C)N=C(NCCc2ccc(OC)cc2)N1.Cl [compound 4]
C: CCCCCCCCCCCC1(C)N=C(N)NC(NCc2ccccc2)=N1.Cl (racemic) [compound 46]
Sort by minimal inhibitory concentration (MIC), descending. A complete answer lists every label in the requested sequence.
A, B, C
(A: 1.6 mg/L, B: 0.8 mg/L, C: 0.4 mg/L)

A: CC(=O)O.CCCCCCCNC1=NC(C)(C)N=C(NC(C)(C)CC(C)(C)C)N1 [compound 71]
B: CCCCCCCCC1N=C(N)NC(Nc2cc(C(C)(C)C)ccc2OC)=N1 (centres unmarked) [compound 25]
Field: lower recorded minimal inhibitory concentration (MIC) (choose A or B ) Could you answer with the label of the item you picked?
A

Data credit: patent US7622469B2
